target: Peroxisome proliferator-activated receptor gamma (Homo sapiens); assay: qHTS assay for small molecule antagonists of peroxisome proliferator-activated receptor gamma signaling (AID 588537); settings: HEK293 PPARg-UAS-bla, beta-lactamase ratio, antagonist mode; series mostly up to 76.8 µM;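 also: reporter cells co-stimulated with 50 nM rosiglitazone agonist during compound treatment; % of control where 0% means no effect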
Results filed as inconclusive are left out. Active and inactive are the calls of the source. Calls follow the shape of the dose curve; as a rule, active = well fitted inhibition curve with a large enough effect in the signal ratio, with a control signal flat (not every such curve was filed as active); inconclusive = small, poorly fitted or top-dose-only effect, or effect the other way, or a change in a side signal; inactive = flat fitted curve, though single readings scatter; the % refers to the signal ratio.
Please state which outcome applies, choosing from class 1 for active, class 0 for inactive

// known answers, use as guide
- compound: "CCC[CH2][Sn]([CH2]CCC)([O]C(C)=O)[O]C(C)=O"
  assignedClass: "class 0"
- compound: "COC(=O)NS(=O)(=O)c1ccc(N)cc1"
  assignedClass: "class 0"
- compound: "Cc1cc(C)nc(NC(=O)NS(=O)(=O)c2ccccc2C(=O)OC2COC2)n1"
  assignedClass: "class 0"
- compound: "Cc1c(COC(=O)C2C(/C=C(\\Cl)C(F)(F)F)C2(C)C)cccc1-c1ccccc1 (centres undefined)"
  assignedClass: "class 0"
- compound: "CCOc1ccc(C(C)(C)COCc2cccc(Oc3ccccc3)c2)cc1"
  assignedClass: "class 0"
- compound: "O=[N+]([O-])Nc1nccn1Cc1ccc(Cl)nc1"
  assignedClass: "class 0"
- compound: "CCOC1Oc2ccc(OS(C)(=O)=O)cc2C1(C)C (centres undefined)"
  assignedClass: "class 0"
- compound: "O=CNC(N1CCN(C(NC=O)C(Cl)(Cl)Cl)CC1)C(Cl)(Cl)Cl (centres undefined)"
  assignedClass: "class 0"
- compound: "O=C(O)C(F)(F)C(F)(F)C(F)(F)C(F)(F)C(F)(F)C(F)(F)C(F)(F)C(F)(F)C(F)(F)F"
  assignedClass: "class 0"
- compound: "CCOP(=S)(OCC)Oc1ccc(S(C)=O)cc1 (centres undefined)"
  assignedClass: "class 0"

Input line: Kindly provide the recorded test outcome for the following compound: `C[N+]1(C)CCCCC1`
Output line: class 0

Input line: Kindly provide the recorded test outcome for the following compound: CC(C)C1(C)N=C(c2nc3ccccc3cc2C(=O)O)NC1=O (centres undefined)
Output line: class 0

Input line: Kindly provide the recorded test outcome for the following compound: `CCCCN(CC)C(=O)SCCC`
Output line: class 0

Input line: Kindly provide the recorded test outcome for the following compound: `CC(C)(c1ccccc1)c1cc(-n2nc3ccccc3n2)c(O)c(C(C)(C)c2ccccc2)c1`
Output line: class 0

Input line: Kindly provide the recorded test outcome for the following compound: CCCCC(CC)COC(=O)Cl (centres undefined)
Output line: class 0

Input line: Kindly provide the recorded test outcome for the following compound: `CCNc1nc(Cl)nc(NC(C)(C)C)n1`
Output line: class 0

Input line: Kindly provide the recorded test outcome for the following compound: `CCOP(=O)(O)C(N)=O`
Output line: class 0

Input line: Kindly provide the recorded test outcome for the following compound: `Nc1cccc(C(F)(F)F)c1`
Output line: class 0

Input line: Kindly provide the recorded test outcome for the following compound: `Clc1ccc(-c2cc(Cl)c(Cl)cc2Cl)cc1Cl`
Output line: class 0

Input line: Kindly provide the recorded test outcome for the following compound: `Nc1nc(N)nc(Cl)n1`
Output line: class 0

Input line: Kindly provide the recorded test outcome for the following compound: `C[Si](Cn1cncn1)(c1ccc(F)cc1)c1ccc(F)cc1`
Output line: class 0

Input line: Kindly provide the recorded test outcome for the following compound: `COP(=S)(OC)Oc1ccc([N+](=O)[O-])c(C)c1`
Output line: class 0

Input line: Kindly provide the recorded test outcome for the following compound: CCC/C(=N\OCC)C1=C(O)CC(CC(C)SCC)CC1=O (centres undefined)
Output line: class 0

Input line: Kindly provide the recorded test outcome for the following compound: `CCC(CC)Nc1c([N+](=O)[O-])cc(C)c(C)c1[N+](=O)[O-]`
Output line: class 0

Input line: Kindly provide the recorded test outcome for the following compound: CC(Oc1ccc(Cl)cc1Cl)C(=O)O (centres undefined)
Output line: class 0
